A collection of sequences and their measured protein stability index
System: Saccharomyces cerevisiae
Assay: protein stability index of tFT-peptide fusion (C-terminal peptide) (PSI (0-1 scale)); higher = more stable (slower turnover)
Details: genetic background: cdc34-1; temperature: 37 C

Sample records with protein stability index:
>>> valuemeasured("WGGEFLSLTLSS")
0.732
>>> valuemeasured("LLVSVVFVSRFF")
0.378
>>> valuemeasured("YVSIWSPILWLA")
0.169
>>> valuemeasured("MFTIYISFVFAF")
0.197
>>> valuemeasured("LRSPCALVLLLI")
0.495

Identify protein stability index associated with the sequence FMCCFWFFWLGF 0.522

State its protein stability index for this sequence: YIRINNIYWKKS 0.58

---

Test system: Saccharomyces cerevisiae
Assay: protein stability index of tFT-peptide fusion (C-terminal peptide) (PSI (0-1 scale)); higher = more stable (slower turnover)
Details: genetic background: cdc34-1; temperature: 37 C
measuredMetric: protein stability index
Enter a number only.

Field: example entries. Status: answers known.
>>> valuemeasured("RSSGHLLDGRAF")
0.697
>>> valuemeasured("YCAAVCFWGLYC")
0.522
>>> valuemeasured("RFWFTFYLIAVF")
0.0612
>>> valuemeasured("FGARCSLSPLVT")
0.725
>>> valuemeasured("FFVYFFLLLFWF")
0.171
>>> valuemeasured("VCLWVEVLIVLG")
0.0839
>>> valuemeasured("TLNKDILIIKCA")
0.382
>>> valuemeasured("GLFVGCWVFLVL")
0.344
>>> valuemeasured("FTRWLVYCTPLC")
0.554
>>> valuemeasured("LSRFGSTCPSGL")
0.72

Then there is this sequence:
Jot down protein stability index (Saccharomyces cerevisiae) of YYFFLTFLCYVF . 0.153

---

System: Saccharomyces cerevisiae
Experiment: protein stability index of tFT-peptide fusion in wild type (PSI (0-1 scale)); higher = more stable (slower turnover)
Conditions: genetic background: wild type
measuredMetric: protein stability index
Reply with just the number.

Example results:
>>> valuemeasured("CTSCGYKFRTNNQ")
0.681
>>> valuemeasured("PDKRNHLIKQLN")
0.0992

Query protein stability index for PDKRNHLIKLHN 0.359

Identify measured protein stability index corresponding to PSLAASFWRVVY 0.636

---

System: Saccharomyces cerevisiae
Test: protein stability index of tFT-peptide fusion (C-terminal peptide) (PSI (0-1 scale)); higher = more stable (slower turnover)
Conditions: genetic background: wild type; temperature: 37 C
measuredMetric: protein stability index
Give the figure only, with no unit attached.

>>> valuemeasured("AFPSSVILMVFS")
0.387

Supply measured protein stability index of GVVVGVLLVCGW in your reply. 0.461

# return recorded protein stability index for input VALAVRVVVCGA 0.0779

Let me know recorded protein stability index for SYGNGIPIRMLH , thanks. 0.422

Return protein stability index (reported value) for this sequence: TGYRYVGRFFVV 0.329

Respond only with protein stability index recorded for CVFVRCVDCMSG 0.579

// fetch protein stability index given entry GGWGSSLGVWVG 0.402

Return reported protein stability index. Input sequence: LLILSLLVLSSR 0.37

Check the records and state protein stability index for GSLPERPLRYVC 0.148

Tell me measured protein stability index for WLVVGGVVLLVV please. 0.37

---

Test system: Saccharomyces cerevisiae
Experiment: protein stability index of tFT-peptide fusion (C-terminal peptide) (PSI (0-1 scale)); higher = more stable (slower turnover)
Settings: genetic background: das1 deletion; temperature: 30 C
The following sequences are listed with their measured protein stability index values.
Number, no unit, nothing else.

Use the examples below as a reference point.
>>> valuemeasured("VTGFGVAIVCVT")
0.254
>>> valuemeasured("YPVGAAFIRARA")
0.361
>>> valuemeasured("SLFSPPVLATPS")
0.572

Return protein stability index for the following sequence: GTEFSNVITYLV 0.629

Please give measured protein stability index of the following entry: SCLRVYFSVVVS 0.286

State, in one line, measured protein stability index of SYGNGIPIRMLH 0.641

Identify protein stability index associated with the sequence KEKGVTKIRISS 0.632

Output measured protein stability index for this item: LSFLSLIFSICY 0.356

Let me know recorded protein stability index for FWSARAVVWWCW , thanks. 0.445

Give the value of protein stability index reported for the following: SLSPVFVAVWFL 0.383

Read off the recorded protein stability index for LFLFFFLPPLLF 0.373

Answer with the recorded protein stability index of FFILVFFSLLST only. 0.283
